molecular target: SARS-CoV-2 Main Protease (SARS-CoV-2) (UniProt P0DTD1); conditions: 20.0 µM
Below, each entry is listed alongside its reported inhibition.
OBSERVATION_TYPE: inhibition (%)

>>> reading("Cc1ccncc1NC(=O)C(C)c1cccc(C#N)c1 (stereo not drawn)")
21
>>> reading("Cc1ncncc1NC(=O)Nc1ccccc1")
6.04
>>> reading("O=C(NCc1ccno1)c1ccccc1Oc1ccc(Cl)cc1Cl")
0
>>> reading("Cc1ccncc1NC(=O)Nc1cccc(C#N)c1")
23.8
>>> reading("O=C(Cc1cccnc1Cl)Nc1cccc(OCCc2ccccc2)c1")
0
>>> reading("C=CC(=O)N(c1ccc(S(F)(F)(F)(F)F)cc1)C(C(=O)Nc1ccc(OC)cc1C)c1cccnc1 (stereo not drawn)")
0
>>> reading("CS(=O)(=O)Nc1cccc(C(=O)Nc2cccc(N3CCCC3=O)c2)c1")
0
>>> reading("N#Cc1cccc(NC(=O)Nc2c[nH]c3ncccc23)c1")
0
>>> reading("CCN(Cc1cccc(-c2ccncc2)c1)C(=O)Cc1noc2ccccc12")
0
>>> reading("COC1CCN(c2ccc(S(N)(=O)=O)cc2)CC1")
29.7
>>> reading("C=CC(=O)N(c1ccc(SC)cc1)C(C(=O)Nc1ccc(Cl)cc1)c1cccnc1 (stereo not drawn)")
9.4
>>> reading("C=C1CC1C(=O)NC(C)c1ccc(S(=O)(=O)NC)cc1 (stereo not drawn)")
0
>>> reading("O=C(CC1(c2ccccc2)CCCC1)Nc1cccnc1")
0
>>> reading("CC(=O)N[C@@H](Cc1ccc(O)cc1)C(=O)NCc1ccc(Br)cc1 (stereo in doubt)")
0
>>> reading("CS(=O)(=O)NCCCN1CCCc2ccc(S(N)(=O)=O)cc21")
0
>>> reading("COc1ccc2nc(C)cc(C(=O)NN)c2c1")
0
>>> reading("CC(C)(C)CC(=O)C(C#N)C(=O)Nc1ccccc1 (stereo not drawn)")
2.52
>>> reading("C=CC(=O)N(c1ccc(C(C)(C)CC)cc1)C(C(=O)Nc1ccc(Br)cc1)c1cccnc1 (stereo not drawn)")
0
>>> reading("N#Cc1ccnc(CNC(=O)Cc2c[nH]c3ncccc23)c1")
0
>>> reading("CNC(=O)OC1CCN(C(=O)c2ccncc2)CC1")
0.65
>>> reading("O=C(Nc1ccccc1)c1cc(Cl)ccc1O")
0
>>> reading("C=CC(=O)N(c1ccc(S(F)(F)(F)(F)F)cc1)C(C(=O)NC(C)(C)C)c1cccnc1 (stereo not drawn)")
6.54
>>> reading("C=CC(=O)N(c1ccc(C(C)(C)C)cc1)C(C(=O)NCC1CCOC1)c1cccnc1 (stereo not drawn)")
1.1

Measured values drawn from the COVID Moonshot data (paper PMC11187573) for this set.
